Form field: Erosion (one value per entry).
Experiment: Determination of ulcer index
Conditions: male
measurementType: Erosion

1) O=C(O)c1ccccc1O [Na-salicylate, reference compound]; 1/10
2) N#CCCC1CN2CCc3cc4c(cc3C2CC1=O)OCO4 (stereo not drawn); 0/10
3) COc1cc2c(cc1OC)C1CC(=O)C(CCC#N)CN1CC2 (stereo not drawn); 3/10
